Provenance of the data: ChEMBL document CHEMBL1132324

- experimentalTarget: D(2) dopamine receptor (Rattus norvegicus) (UniProt P61169)
- Sequence (P61169 whole entry): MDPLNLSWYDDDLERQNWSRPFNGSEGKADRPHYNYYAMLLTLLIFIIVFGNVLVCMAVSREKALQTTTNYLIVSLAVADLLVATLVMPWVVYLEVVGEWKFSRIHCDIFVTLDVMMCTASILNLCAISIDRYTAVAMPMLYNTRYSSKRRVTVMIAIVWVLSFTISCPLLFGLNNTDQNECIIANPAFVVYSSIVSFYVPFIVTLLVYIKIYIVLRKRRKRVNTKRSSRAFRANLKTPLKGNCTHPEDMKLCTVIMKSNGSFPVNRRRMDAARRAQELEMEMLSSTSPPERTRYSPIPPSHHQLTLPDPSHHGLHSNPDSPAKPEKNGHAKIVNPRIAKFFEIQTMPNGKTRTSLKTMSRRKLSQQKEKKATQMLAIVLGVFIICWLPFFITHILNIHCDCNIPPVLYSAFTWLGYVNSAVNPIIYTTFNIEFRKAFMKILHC
- procedureDetails: The binding affinity was evaluated on Dopamine receptor D2 expressed in rat striatum by using [3H]spiperone as radioligand
- Type: tissue-based
readoutLabel: pKi

// below: answered compounds
compound: COc1cccc(OC)c1OCCNCC1COc2ccccc2O1 (centres undefined)
pKi: 6.91
//
compound: COc1cccc(OC)c1OCCNCC1C(=O)c2ccccc2OC1c1ccccc1 (centres undefined)
pKi: < 6
//
compound: COc1cccc(OC)c1OCCNCC1Oc2ccccc2CC1c1ccccc1 (stereo in doubt; 7)
pKi: < 6

Kindly review the next compound as well.
Per the records, this compound ( COc1cccc(OC)c1OCCNCC1C(=O)c2ccccc2CC1c1ccccc1 (centres undefined) ) has pKi equal to < 6

====

- experimentalTarget: Alpha-1D adrenergic receptor (Homo sapiens) (UniProt P25100)
- Sequence (whole entry): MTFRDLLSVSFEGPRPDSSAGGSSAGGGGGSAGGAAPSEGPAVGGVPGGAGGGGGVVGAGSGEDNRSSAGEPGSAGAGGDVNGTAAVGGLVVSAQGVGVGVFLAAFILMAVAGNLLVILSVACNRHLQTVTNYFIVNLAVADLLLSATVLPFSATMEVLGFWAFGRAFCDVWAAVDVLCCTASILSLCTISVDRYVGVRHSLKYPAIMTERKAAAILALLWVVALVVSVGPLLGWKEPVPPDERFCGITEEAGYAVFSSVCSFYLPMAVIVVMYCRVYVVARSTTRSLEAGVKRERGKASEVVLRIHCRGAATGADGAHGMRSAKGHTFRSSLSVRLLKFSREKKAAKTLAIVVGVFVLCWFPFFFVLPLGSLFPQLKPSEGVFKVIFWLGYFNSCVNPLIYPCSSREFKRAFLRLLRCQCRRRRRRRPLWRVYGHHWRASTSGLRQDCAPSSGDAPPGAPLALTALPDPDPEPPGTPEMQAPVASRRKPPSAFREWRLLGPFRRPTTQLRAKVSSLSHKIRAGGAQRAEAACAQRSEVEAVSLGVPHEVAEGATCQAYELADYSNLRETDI
- procedureDetails: The binding affinity was evaluated on cloned human alpha-1D adrenergic receptor expressed in chinese hamster ovary(CHO) cells by using [3H]prazosin as radioligand.
- Type: cell-based
readoutLabel: pKi
# print the numeric value only

molecule: COc1cccc(OC)c1OCCNCC1C(=O)c2ccccc2CC1c1ccccc1 (centres undefined)
experimentalTarget: Alpha-1D adrenergic receptor (Homo sapiens) (UniProt P25100)
pKi: 6.88

molecule: COc1cccc(OC)c1OCCNCC1C(=O)c2ccccc2SC1c1ccccc1 (centres undefined)
experimentalTarget: Alpha-1D adrenergic receptor (Homo sapiens) (UniProt P25100)
pKi: 6.37

molecule: COc1cccc(OC)c1OCCNCC1Oc2ccccc2CC1c1ccccc1 (stereo in doubt; 6)
experimentalTarget: Alpha-1D adrenergic receptor (Homo sapiens) (UniProt P25100)
pKi: 6.86

Kindly review the next molecule as well.
Per the records, this molecule ( COc1cccc(OC)c1OCCNCC1C(=O)c2ccccc2OC1c1ccccc1 (centres undefined) ) has pKi equal to 7.93

====

- experimentalTarget: 5-hydroxytryptamine receptor 1A (Homo sapiens) (UniProt P08908)
- Sequence (whole entry): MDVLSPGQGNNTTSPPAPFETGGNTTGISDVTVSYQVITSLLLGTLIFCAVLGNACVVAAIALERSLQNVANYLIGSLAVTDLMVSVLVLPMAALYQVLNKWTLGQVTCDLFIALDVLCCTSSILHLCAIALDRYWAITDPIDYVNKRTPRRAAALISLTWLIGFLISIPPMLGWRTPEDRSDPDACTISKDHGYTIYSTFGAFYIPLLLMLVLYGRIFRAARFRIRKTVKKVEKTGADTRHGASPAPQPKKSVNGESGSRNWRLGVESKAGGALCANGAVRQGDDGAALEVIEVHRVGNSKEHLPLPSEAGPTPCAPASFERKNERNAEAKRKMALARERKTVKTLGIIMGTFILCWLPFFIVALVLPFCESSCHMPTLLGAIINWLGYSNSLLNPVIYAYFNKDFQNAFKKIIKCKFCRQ
- procedureDetails: The binding affinity was evaluated on cloned human 5-hydroxytryptamine 1A receptor expressed in HeLa cells by using DPAT as radioligand.
- Assay type: cell-based
Each item that follows carries a reported pKi.
# print the numeric value only

compound: COc1cccc(OC)c1OCCNCC1COc2ccccc2O1 (stereo not drawn)
readoutLabel: pKi
readoutValue: 8.68
--
compound: COc1cccc(OC)c1OCCNCC1C(=O)c2ccccc2CC1c1ccccc1 (stereo not drawn)
readoutLabel: pKi
readoutValue: 6.83
--
compound: COc1cccc(OC)c1OCCNCC1C(=O)c2ccccc2SC1c1ccccc1 (stereo not drawn)
readoutLabel: pKi
readoutValue: 7.36
--
compound: COc1cccc(OC)c1OCCNCC1Oc2ccccc2CC1c1ccccc1 (stereo in doubt; 7)
readoutLabel: pKi
readoutValue: 6.84
--
compound: COc1cccc(OC)c1OCCNCC1C(=O)c2ccccc2OC1c1ccccc1 (stereo not drawn)
readoutLabel: pKi
readoutValue: 6.73
--
compound: COc1cccc(OC)c1OCCNCC1Oc2ccccc2CC1c1ccccc1 (stereo in doubt; 6)
readoutLabel: pKi
readoutValue: 6.76
--
compound: COc1cccc(OC)c1OCCNCC1=Cc2ccccc2OC1c1ccccc1 (stereo not drawn)
readoutLabel: pKi
readoutValue: 8.08

Kindly review the next compound as well.
Per the records, this compound ( COc1cccc(OC)c1OCCNCCOc1ccccc1OCc1ccccc1 ) has pKi equal to 7.93

====

- experimentalTarget: Alpha-1A adrenergic receptor (Homo sapiens) (UniProt P35348)
- Sequence (P35348 whole entry): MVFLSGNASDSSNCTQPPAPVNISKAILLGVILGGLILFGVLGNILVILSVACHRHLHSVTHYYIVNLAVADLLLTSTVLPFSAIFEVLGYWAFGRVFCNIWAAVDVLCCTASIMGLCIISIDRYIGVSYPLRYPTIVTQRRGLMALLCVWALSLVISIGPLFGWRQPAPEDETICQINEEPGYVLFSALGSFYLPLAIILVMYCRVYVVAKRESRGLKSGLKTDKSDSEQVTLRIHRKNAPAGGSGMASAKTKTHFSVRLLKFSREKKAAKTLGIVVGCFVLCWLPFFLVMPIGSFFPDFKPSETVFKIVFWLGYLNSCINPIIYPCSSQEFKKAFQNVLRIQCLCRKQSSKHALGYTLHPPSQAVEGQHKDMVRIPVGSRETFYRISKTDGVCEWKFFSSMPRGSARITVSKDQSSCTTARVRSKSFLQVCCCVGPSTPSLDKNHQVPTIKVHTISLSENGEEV
- procedureDetails: The binding affinity was evaluated on cloned human alpha-1A adrenergic receptor expressed in chinese hamster ovary(CHO) cells by using [3H]prazosin as radioligand.
- Format: cell-based
Label not met if pKi falls below 8; label met in every other case.

compound: COc1cccc(OC)c1OCCNCC1COc2ccccc2O1 (stereo not given)
group: met
//
compound: COc1cccc(OC)c1OCCNCC1C(=O)c2ccccc2OC1c1ccccc1 (stereo not given)
group: met
//
compound: COc1cccc(OC)c1OCCNCC1C(=O)c2ccccc2SC1c1ccccc1 (stereo not given)
group: not met

Does COc1cccc(OC)c1OCCNCC1Oc2ccccc2CC1c1ccccc1 (stereo in doubt; 6) have a reported pKi of at least 8?
not met

====

- experimentalTarget: UniProt P35368
- Sequence (P35368 whole entry): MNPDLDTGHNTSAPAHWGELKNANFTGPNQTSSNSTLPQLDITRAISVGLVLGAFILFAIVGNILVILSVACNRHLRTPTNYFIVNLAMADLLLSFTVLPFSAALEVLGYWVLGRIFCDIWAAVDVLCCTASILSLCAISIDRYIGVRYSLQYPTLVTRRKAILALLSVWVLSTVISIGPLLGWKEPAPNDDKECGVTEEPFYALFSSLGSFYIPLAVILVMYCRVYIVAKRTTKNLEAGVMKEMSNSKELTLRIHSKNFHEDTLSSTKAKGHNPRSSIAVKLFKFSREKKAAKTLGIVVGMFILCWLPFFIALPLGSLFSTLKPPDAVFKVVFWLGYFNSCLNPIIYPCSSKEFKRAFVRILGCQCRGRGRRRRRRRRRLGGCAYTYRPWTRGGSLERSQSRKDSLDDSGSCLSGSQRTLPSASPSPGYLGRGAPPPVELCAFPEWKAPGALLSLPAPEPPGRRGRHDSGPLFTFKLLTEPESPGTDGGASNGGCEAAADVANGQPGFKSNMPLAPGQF
- procedureDetails: The binding affinity was evaluated on cloned human Alpha-1B adrenergic receptor expressed in chinese hamster ovary(CHO) cells by using [3H]prazosin as radioligand.
- Format: cell-based
Each item that follows carries a reported pKi.
# print the numeric value only

// below: answered compounds
compound: COc1cccc(OC)c1OCCNCC1=Cc2ccccc2OC1c1ccccc1 (centres undefined)
pKi: 6.84
//
compound: COc1cccc(OC)c1OCCNCC1Oc2ccccc2CC1c1ccccc1 (stereo in doubt; 7)
pKi: 6.58

Kindly review the next compound as well.
Per the records, this compound ( COc1cccc(OC)c1OCCNCCOc1ccccc1OCc1ccccc1 ) has pKi equal to 9.27

====

- experimentalTarget: 5-hydroxytryptamine receptor 2A (Rattus norvegicus) (UniProt P14842)
- Sequence (P14842 whole entry): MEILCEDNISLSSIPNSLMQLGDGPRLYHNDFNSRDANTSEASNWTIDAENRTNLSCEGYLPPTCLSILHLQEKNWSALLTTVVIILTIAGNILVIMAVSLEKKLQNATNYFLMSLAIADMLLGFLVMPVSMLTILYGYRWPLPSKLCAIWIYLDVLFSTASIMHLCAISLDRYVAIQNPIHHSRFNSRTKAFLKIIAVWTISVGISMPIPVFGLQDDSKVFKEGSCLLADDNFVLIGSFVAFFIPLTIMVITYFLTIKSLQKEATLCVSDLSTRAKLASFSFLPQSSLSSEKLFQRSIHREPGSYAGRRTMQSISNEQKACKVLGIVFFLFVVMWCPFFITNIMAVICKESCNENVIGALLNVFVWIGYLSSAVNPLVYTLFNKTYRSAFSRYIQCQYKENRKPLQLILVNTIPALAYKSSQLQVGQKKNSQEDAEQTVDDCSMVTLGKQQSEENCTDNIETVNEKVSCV
- procedureDetails: The binding affinity was evaluated on 5-hydroxytryptamine 2A receptor expressed in rat cortex by using [3H]ketanserin as radioligand.
readoutLabel: pKi

compound: COc1cccc(OC)c1OCCNCC1Oc2ccccc2CC1c1ccccc1 (stereo in doubt; 7)
pKi: < 6
--
compound: COc1cccc(OC)c1OCCNCC1C(=O)c2ccccc2OC1c1ccccc1 (centres undefined)
pKi: 6.2
--
compound: COc1cccc(OC)c1OCCNCC1C(=O)c2ccccc2CC1c1ccccc1 (centres undefined)
pKi: 6.63

Kindly review the next compound as well.
Per the records, this compound ( COc1cccc(OC)c1OCCNCC1COc2ccccc2O1 (centres undefined) ) has pKi equal to 6
